FYI, the data here is from PubChem BioAssay (NCI).

system: NCI-H460 lung; test: NCI-60 one-dose screen, 48 h (100 = growth as untreated, 0 = no growth, -100 = all killed); settings: 10 µM unless noted
About 83,000 compounds went through this panel and 20% of them were active in at least one assay; those are over-represented in the sample as a whole.
// NB: equality with 80% counts as not fulfilled; only growth strictly below is fulfilled

Solved entries:
{"compound": "COc1ccc(-c2cnnn2-c2nonc2-n2cccc2)cc1OC", "subject of test": "NCI-H460 lung", "category": "fulfilled"}
{"compound": "O=C(NNC(=O)N1c2ccccc2C=Cc2ccccc21)c1ccc2ccccc2c1", "subject of test": "NCI-H460 lung", "category": "not fulfilled"}
{"compound": "C=C(C)[C@@H]1CC[C@]2(C(=O)O)CC[C@]3(C)[C@H](CC[C@@H]4[C@@]5(C)C[C@@H](CC#Cc6ccc(C(F)(F)F)cc6)[C@H](O)C(C)(C)[C@@H]5CC[C@]43C)[C@@H]12", "subject of test": "NCI-H460 lung", "category": "fulfilled"}
{"compound": "Nc1nc(Nc2cc(Cl)cc(Cl)c2)nn1S(=O)(=O)c1ccc2ccccc2c1", "subject of test": "NCI-H460 lung", "category": "fulfilled"}
{"compound": "Cn1cc(-c2cnc3ccc(NC(=O)Nc4ccc(F)c(Br)c4)cc3n2)cn1", "subject of test": "NCI-H460 lung", "category": "fulfilled"}
{"compound": "C=C1C(=O)O[C@H]2[C@H]1CC/C(Cn1cc(CNC(=O)/C=C/c3c[nH]c4ccccc34)nn1)=C\\CC[C@@]1(C)O[C@@H]21", "subject of test": "NCI-H460 lung", "category": "not fulfilled"}
{"compound": "COC(=O)c1cc(=O)nc(N/N=C/c2ccco2)s1", "subject of test": "NCI-H460 lung", "category": "not fulfilled"}
{"compound": "CC(C)CC1NC(C)(C)CO1 (configuration not stated)", "subject of test": "NCI-H460 lung", "category": "not fulfilled"}

Query string: Quick check: growth of `O=[N+]([O-])c1ccc(/C=C/C2(CCl)OCCO2)cc1` under 80%?
Result string: not fulfilled

Query string: Quick check: growth of C=C1CCC2C(C)(CO)C(O)CCC2(C)C1C/C=C1/C(=O)OCC1O/C=C/c1ccccc1 (configuration not stated) under 80%?
Result string: fulfilled

Query string: Quick check: growth of `O=C(Nc1ccncc1)C(=O)c1cn(S(=O)(=O)c2ccccc2F)c2ccccc12` under 80%?
Result string: fulfilled
